ASSAY: Evaluation of water solubility
Type: physicochemical
MEASUREMENT SETUP: PBS pH 7.4 with 1% DMSO, aqueous buffer, kinetic from dmso stock; PBS pH 7.4, 1% DMSO, 200 μM if completely dissolved, filtrate concentration by UHPLC
ASSAY READOUT: solubility at 30 min

Below: 2 molecules and their reported solubility at 30 min.
{"columns": ["MOLECULE", "RESULT"],
 "data": [
  ["C=C[Si]1(C)C2=C/C(=[N+](\\C)CC(F)(F)F)C=CC2=C(c2c(OC)cc(C(=O)[O-])cc2OC)c2ccc(N(C)CC(F)(F)F)cc21 (stereo not drawn)", "1 to 10 µM"],
  ["C=C[Si]1(C)C2=C/C(=N/C)C=CC2=C(c2sc(C(=O)O)cc2C)c2ccc(NC)cc21 (stereo not drawn)", "1 to 10 µM"]
]}

q: For C=C[Si]1(C)C2=C/C(=[N+]3\CCC(F)C3)C=CC2=C(c2c(OC)cc(C(=O)[O-])cc2OC)c2ccc(N3CCC(F)C3)cc21 (stereo not drawn) , what is its reported solubility at 30 min?
a: 1 to 10 µM

----------
ASSAY: Evaluation of fluorescence quantum yield
Format: physicochemical
MEASUREMENT SETUP: PBS solution (pH 7.4)
ASSAY READOUT: Fluorescence quantum yield

{"columns": ["COMPOUND", "RESULT"],
 "data": [
  ["C=C[Si]1(C)C2=CC(=[N+]3CC(F)C3)C=CC2=C(c2c(OC)cc(C(=O)[O-])cc2OC)c2ccc(N3CC(F)C3)cc21 (stereo not shown)", "A (0.5 or more)"],
  ["C=C[Si]1(C)C2=C/C(=[N+]3\\CCC(F)C3)C=CC2=C(c2c(OC)cc(C(=O)[O-])cc2OC)c2ccc(N3CCC(F)C3)cc21 (stereo not shown)", "A (0.5 or more)"]
]}

----------
ASSAY: Evaluation of maximum molar absorption coefficient
Format: physicochemical
MEASUREMENT SETUP: PBS solution (pH 7.4)

{"columns": ["COMPOUND", "Maximum molar absorption coefficient"],
 "data": [
  ["C=C[Si]1(C)C2=CC(=[N+](C)C)C=CC2=C(c2ccc(C(=O)[O-])cc2F)c2ccc(N(C)C)cc21 (stereo not shown)", "A (100,000 or more)"],
  ["C=C[Si]1(C)C2=CC(=[N+](C)C)C=CC2=C(c2sc(C(=O)[O-])cc2C)c2ccc(N(C)C)cc21 (stereo not shown)", "A (100,000 or more)"]
]}
